We begin with a simple list: items and their reported -logMIC.
Test system: Staphylococcus aureus
Test: Antibacterial activity against Staphylococcus aureus assessed as growth inhibition after 24 hr by tube dilution method
Assay type: functional
Number only, no unit.

The examples below pair each entry with its known result.
>>> obs_value("O=C(Nc1ccccc1F)c1ccc(/N=N\\c2c[nH]c3ccccc23)cc1")
1.46
>>> obs_value("O=C(Nc1ccccc1Cl)c1ccccc1/N=N\\c1c[nH]c2ccccc12")
1.18
>>> obs_value("Cc1ccc(NC(=O)c2ccc(/N=N\\c3c[nH]c4ccccc34)cc2)cc1")
1.45
>>> obs_value("O=C(Nc1cccc([N+](=O)[O-])c1)c1ccc(/N=N\\c2c[nH]c3ccccc23)cc1")
1.19
>>> obs_value("O=C(Nc1cccc(Cl)c1)c1ccccc1/N=N\\c1c[nH]c2ccccc12")
1.18

Incoming: Query: -logMIC; subject: Cc1cccc(NC(=O)c2ccc(/N=N\c3c[nH]c4ccccc34)cc2)c1
Outgoing: 1.45

Incoming: Query: -logMIC; subject: O=C(Nc1cccc(Cl)c1)c1ccc(/N=N\c2c[nH]c3ccccc23)cc1
Outgoing: 1.48

* * *

Test system: Candida albicans
Assay: Antifungal activity against Candida albicans assessed as growth inhibition after 48 hr by tube dilution method
Type: functional
We begin with a simple list: items and their reported -logMIC.

The examples below pair each entry with its known result.
>>> obs_value("O=C(Nc1ccc(Cl)cc1)c1ccc(/N=N\\c2c[nH]c3ccccc23)cc1")
1.48
>>> obs_value("O=C(Nc1ccccc1F)c1ccc(/N=N\\c2c[nH]c3ccccc23)cc1")
1.46
>>> obs_value("O=C(Nc1ccc([N+](=O)[O-])cc1)c1ccc(/N=N\\c2c[nH]c3ccccc23)cc1")
1.49
>>> obs_value("OC(Cn1cncn1)(Cn1cncn1)c1ccc(F)cc1F")
2.64
>>> obs_value("O=C(Nc1cccc(Cl)c1)c1ccc(/N=N\\c2c[nH]c3ccccc23)cc1")
1.48

Incoming: Query: -logMIC; subject: Cc1ccccc1NC(=O)c1ccccc1/N=N\c1c[nH]c2ccccc12
Outgoing: 1.45

Incoming: Query: -logMIC; subject: O=C(Nc1ccccc1)c1ccccc1/N=N\c1c[nH]c2ccccc12
Outgoing: 1.44

* * *

Test system: Escherichia coli
Assay: Antibacterial activity against Escherichia coli assessed as growth inhibition after 24 hr by tube dilution method
Format: functional
We begin with a simple list: items and their reported -logMIC.
Number only, no unit.

Incoming: Query: -logMIC; subject: Cc1ccc(C)c(NC(=O)c2ccc(/N=N\c3c[nH]c4ccccc34)cc2)c1
Outgoing: 1.77

Incoming: Query: -logMIC; subject: Cc1cccc(NC(=O)c2ccccc2/N=N\c2c[nH]c3ccccc23)c1C
Outgoing: 1.77

Incoming: Query: -logMIC; subject: Cc1ccc(NC(=O)c2ccc(/N=N\c3c[nH]c4ccccc34)cc2)c(C)c1
Outgoing: 1.47

Incoming: Query: -logMIC; subject: Cc1cccc(NC(=O)c2ccc(/N=N\c3c[nH]c4ccccc34)cc2)c1
Outgoing: 1.75

Incoming: Query: -logMIC; subject: O=C(Nc1ccc(Cl)cc1)c1ccccc1/N=N\c1c[nH]c2ccccc12
Outgoing: 1.48

Incoming: Query: -logMIC; subject: O=C(Nc1ccc(Cl)cc1)c1ccc(/N=N\c2c[nH]c3ccccc23)cc1
Outgoing: 1.48

Incoming: Query: -logMIC; subject: Cc1cccc(NC(=O)c2ccccc2/N=N\c2c[nH]c3ccccc23)c1
Outgoing: 1.75

* * *

Test system: Candida albicans
Test: Antifungal activity against Candida albicans assessed as growth inhibition after 48 hr by tube dilution method
Type: functional
Endpoint label: -logMIC
Number only, no unit.

>>> obs_value("Cc1cccc(NC(=O)c2ccccc2/N=N\\c2c[nH]c3ccccc23)c1")
1.45
>>> obs_value("Cc1ccc(NC(=O)c2ccc(/N=N\\c3c[nH]c4ccccc34)cc2)c(C)c1")
1.47
>>> obs_value("O=C(Nc1cccc(Cl)c1)c1ccccc1/N=N\\c1c[nH]c2ccccc12")
1.48
>>> obs_value("Cc1ccc(NC(=O)c2ccccc2/N=N\\c2c[nH]c3ccccc23)c(C)c1")
1.47
>>> obs_value("Cc1cccc(NC(=O)c2ccc(/N=N\\c3c[nH]c4ccccc34)cc2)c1C")
1.47

--- query ---
Incoming: Query: -logMIC; subject: O=C(Nc1ccccc1)c1ccc(/N=N\c2c[nH]c3ccccc23)cc1
Outgoing: 1.44

* * *

Test system: Staphylococcus aureus
Experiment: Antibacterial activity against Staphylococcus aureus assessed as growth inhibition after 24 hr by tube dilution method
Assay type: functional
We begin with a simple list: items and their reported -logMIC.
Number only, no unit.

The examples below pair each entry with its known result.
>>> obs_value("O=C(Nc1ccccc1[N+](=O)[O-])c1ccc(/N=N\\c2c[nH]c3ccccc23)cc1")
1.49
>>> obs_value("O=C(Nc1ccccc1)c1ccccc1/N=N\\c1c[nH]c2ccccc12")
1.13
>>> obs_value("Cc1ccc(C)c(NC(=O)c2ccccc2/N=N\\c2c[nH]c3ccccc23)c1")
1.17
>>> obs_value("O=C(Nc1ccccc1Cl)c1ccc(/N=N\\c2c[nH]c3ccccc23)cc1")
1.18

--- query ---
Incoming: Query: -logMIC; subject: Cc1cccc(NC(=O)c2ccccc2/N=N\c2c[nH]c3ccccc23)c1C
Outgoing: 1.17

* * *

Tested on: Escherichia coli
Experiment: Antibacterial activity against Escherichia coli assessed as growth inhibition after 24 hr by tube dilution method
Type: functional
We begin with a simple list: items and their reported -logMIC.
Number only, no unit.

>>> obs_value("Cc1ccccc1NC(=O)c1ccccc1/N=N\\c1c[nH]c2ccccc12")
1.45
>>> obs_value("CCn1cc(C(=O)O)c(=O)c2cc(F)c(N3CCNCC3)cc21")
2.61
>>> obs_value("O=C(Nc1cccc(Cl)c1)c1ccc(/N=N\\c2c[nH]c3ccccc23)cc1")
1.48

--- query ---
Incoming: Query: -logMIC; subject: O=C(Nc1ccccc1F)c1ccc(/N=N\c2c[nH]c3ccccc23)cc1
Outgoing: 1.46

* * *

Tested on: Aspergillus niger
Experiment: Ratio of MFC to MIC for Aspergillus niger
Assay type: functional
Endpoint label: Ratio
Number only, no unit.

The examples below pair each entry with its known result.
>>> obs_value("Cc1ccc(C)c(NC(=O)c2ccccc2/N=N\\c2c[nH]c3ccccc23)c1")
3
>>> obs_value("Cc1cccc(NC(=O)c2ccc(/N=N\\c3c[nH]c4ccccc34)cc2)c1")
3
>>> obs_value("O=C(Nc1ccc([N+](=O)[O-])cc1)c1ccc(/N=N\\c2c[nH]c3ccccc23)cc1")
3
>>> obs_value("O=C(Nc1cccc(Cl)c1)c1ccc(/N=N\\c2c[nH]c3ccccc23)cc1")
3
>>> obs_value("Cc1ccc(NC(=O)c2ccccc2/N=N\\c2c[nH]c3ccccc23)c(C)c1")
3

Incoming: Query: Ratio; subject: O=C(Nc1ccccc1F)c1ccccc1/N=N\c1c[nH]c2ccccc12
Outgoing: 3

Incoming: Query: Ratio; subject: O=C(Nc1ccc(Cl)cc1)c1ccc(/N=N\c2c[nH]c3ccccc23)cc1
Outgoing: 3

Incoming: Query: Ratio; subject: O=C(Nc1ccccc1)c1ccccc1/N=N\c1c[nH]c2ccccc12
Outgoing: 3

Incoming: Query: Ratio; subject: Cc1cccc(NC(=O)c2ccccc2/N=N\c2c[nH]c3ccccc23)c1
Outgoing: 3

Incoming: Query: Ratio; subject: COc1ccccc1NC(=O)c1ccc(/N=N\c2c[nH]c3ccccc23)cc1
Outgoing: 3

* * *

Test system: Staphylococcus aureus
Test: Antibacterial activity against Staphylococcus aureus assessed as growth inhibition after 24 hr by tube dilution method
Type: functional
Endpoint label: -logMIC
Number only, no unit.

The examples below pair each entry with its known result.
>>> obs_value("O=C(Nc1ccc([N+](=O)[O-])cc1)c1ccc(/N=N\\c2c[nH]c3ccccc23)cc1")
1.79
>>> obs_value("Cc1ccc(C)c(NC(=O)c2ccc(/N=N\\c3c[nH]c4ccccc34)cc2)c1")
1.47
>>> obs_value("O=C(Nc1ccc(Cl)cc1)c1ccc(/N=N\\c2c[nH]c3ccccc23)cc1")
1.48
>>> obs_value("Cc1ccc(NC(=O)c2ccccc2/N=N\\c2c[nH]c3ccccc23)c(C)c1")
1.17

--- query ---
Incoming: Query: -logMIC; subject: CCn1cc(C(=O)O)c(=O)c2cc(F)c(N3CCNCC3)cc21
Outgoing: 2.61

* * *

System: Staphylococcus aureus
Experiment: Antibacterial activity against Staphylococcus aureus assessed as growth inhibition after 24 hr by tube dilution method
Format: functional
Endpoint label: -logMIC
Number only, no unit.

The examples below pair each entry with its known result.
>>> obs_value("Cc1cccc(NC(=O)c2ccccc2/N=N\\c2c[nH]c3ccccc23)c1")
1.45
>>> obs_value("Cc1cccc(NC(=O)c2ccc(/N=N\\c3c[nH]c4ccccc34)cc2)c1C")
1.77
>>> obs_value("O=C(Nc1ccccc1F)c1ccccc1/N=N\\c1c[nH]c2ccccc12")
1.16
>>> obs_value("Cc1ccc(NC(=O)c2ccc(/N=N\\c3c[nH]c4ccccc34)cc2)c(C)c1")
1.47
>>> obs_value("O=C(Nc1ccccc1)c1ccc(/N=N\\c2c[nH]c3ccccc23)cc1")
1.44
>>> obs_value("Cc1ccc(NC(=O)c2ccccc2/N=N\\c2c[nH]c3ccccc23)cc1")
1.15
>>> obs_value("Cc1ccccc1NC(=O)c1ccc(/N=N\\c2c[nH]c3ccccc23)cc1")
1.15
>>> obs_value("Cc1ccccc1NC(=O)c1ccccc1/N=N\\c1c[nH]c2ccccc12")
1.15

Incoming: Query: -logMIC; subject: O=C(Nc1ccc(Cl)cc1)c1ccccc1/N=N\c1c[nH]c2ccccc12
Outgoing: 1.18

Incoming: Query: -logMIC; subject: COc1ccccc1NC(=O)c1ccc(/N=N\c2c[nH]c3ccccc23)cc1
Outgoing: 1.47
